Tested on: 786-O
run_description: Euclidean distance of Cell Painting phenotypic profile (signed KS, 77 features) to DMSO centroid (dimensionless distance); 5 or 10 uM (library dependent); higher = stronger phenotypic change vs DMSO (phenoactivity)
condition_notes: 48 h
Structures can show the parent of a compound that is named as a salt.
# class assignment by measured Euclidean distance: zone 1 (below 1), zone 2 (1 to below 2), zone 3 (2 or more)

Past entries and their recorded results:
| molecule | group |
| --- | --- |
| CCOC(=O)C1=C[C@@H](OC(CC)CC)[C@H](NC(C)=O)[C@@H](N)C1 [Oseltamivir Phosphate] | zone 2 |
| CCCCCOC(=O)Nc1nc(=O)n([C@@H]2O[C@H](C)[C@@H](O)[C@H]2O)cc1F | zone 2 |
| Cc1cc2c(s1)Nc1ccccc1N=C2N1CCN(C)CC1 | zone 2 |
| O=C(CO)[C@@H](O)[C@H](O)[C@H](O)CO | zone 2 |
| Nc1c2c(nc3ccccc13)CCCC2 [Tacrine HCl] | zone 1 |
| CO/N=C(\C(=O)N[C@@H]1C(=O)N2C(C(=O)O)=C(CSc3nnnn3C)CS[C@H]12)c1csc(N)n1 [Cefmenoxime hydrochloride] | zone 1 |
| Cn1cnc(N)c2ncnc1-2 | zone 2 |
| O=C1N=C(O)NC1(c1ccccc1)c1ccccc1 [Phenytoin Sodium] | zone 1 |
| COc1ccc(-c2cc3c(C)nc(N)nc3n([C@H]3CC[C@H](OCCO)CC3)c2=O)cn1 | zone 3 |
| Cc1ncc(-c2ccnc(Nc3ccc(S(C)(=O)=O)cc3)n2)n1C(C)C | zone 3 |

**Query** Band for the recorded Euclidean distance of COc1ccc(CC(C)(C)NC[C@H](O)c2cc(O)cc3c2OCC(=O)N3)cc1 [Olodaterol hydrochloride] ?
**Result** zone 2

**Query** Band for the recorded Euclidean distance of CC(C)(C)CC(C)(C)c1ccc(O)c(Cc2ccc(Cl)cc2Cl)c1 ?
**Result** zone 2

Hey, just so you know, these numbers are from the supplement of paper PMC10127200.
